compounds and their reported CC50 at 67 h
method: Cytotoxicity against Vero cells (resazurin)
Type: cell-based
recorded-conditions: African green monkey, read-out: CC50 ± SD (μM) Vero

> print(dat)
                                   compound  assay.readout  recorded.value
1  COC(=O)c1cc(O)c(O)c(O)c1 [Compound 2, methyl gallate]   CC50 at 67 h        > 150 µM
2              CC(C)OC(=O)c1cc(O)c(O)c(O)c1   CC50 at 67 h        > 150 µM
3  COC(=O)c1cc(OC)c(OC)c(OC)c1 [Compound 2l, Methyl 3,4,5-trimethoxybenzoate]   CC50 at 67 h        > 150 µM
4              C=CCCOC(=O)c1cc(O)c(O)c(O)c1   CC50 at 67 h        > 150 µM
5  CC(C)=CCCC(C)CCOC(=O)c1cc(O)c(O)c(O)c1 (stereo not shown)   CC50 at 67 h         82.1 µM
6  C=CC(C)(CCC=C(C)C)OC(=O)c1cc(O)c(O)c(O)c1 (stereo not shown)   CC50 at 67 h        > 150 µM
7   CC(C)=CCCC(C)=CCOC(=O)c1cc(O)c(O)c(O)c1   CC50 at 67 h         48.4 µM
8         O=C(OCCc1ccccc1)c1cc(O)c(O)c(O)c1   CC50 at 67 h        > 150 µM
9               C=CCOC(=O)c1cc(O)c(O)c(O)c1   CC50 at 67 h        > 150 µM

Kindly review the next compound as well.
Tell me measured CC50 at 67 h for "CC(C)CCOC(=O)c1cc(O)c(O)c(O)c1" please. > 150 µM

###

experimental-system: ZIKV NS2B/NS3 (Zika virus, UniProt Q32ZE1)
Construct: tested against the nonstructural protease of ZIKV (NS2B/NS3)
Sequence (Q32ZE1 1421-1460): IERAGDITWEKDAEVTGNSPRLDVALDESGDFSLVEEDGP
Sequence (Q32ZE1 1499-1676): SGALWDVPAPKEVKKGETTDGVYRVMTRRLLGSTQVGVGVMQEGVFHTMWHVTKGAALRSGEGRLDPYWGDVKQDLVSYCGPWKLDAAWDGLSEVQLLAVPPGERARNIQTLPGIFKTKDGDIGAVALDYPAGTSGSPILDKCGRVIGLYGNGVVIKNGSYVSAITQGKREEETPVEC
method: ZIKV NS2B/NS3 protease fluorogenic substrate assay
Format: biochemical
recorded-conditions: IC50 at substrate 100 μM, binding mechanism study, Boc-Gly-Arg-Arg-AMC 100 μM
molecules and their reported IC50
Quick note: number first, unit second.

> print(dat)
                                  molecule  recorded.value
1  CC(C)=CCCC(C)=CCOC(=O)c1cc(O)c(O)c(O)c1         3040 nM

Kindly review the next molecule as well.
Tell me measured IC50 for CC(C)=CCCC(C)CCOC(=O)c1cc(O)c(O)c(O)c1 (centres unmarked) please. 2480 nM

###

experimental-system: ZIKV NS2B/NS3 (Zika virus)
Construct: tested against the nonstructural protease of ZIKV (NS2B/NS3)
method: ZIKV NS2B/NS3 protease fluorogenic substrate assay
Type: biochemical
recorded-conditions: read-out: screening at 20 μM (%)
assay-readout: inhibition at 20 µM (%)
Just the number please, in %, no unit attached.

See these solved cases before continuing.
> print(dat)
                                   compound  recorded.value
1  O=C(OCCCc1ccccc1)c1cc(O)c(O)c(O)c1 [Compound 2h]              96
2  CC(C)=CCCC(C)=CCOC(=O)c1cc(O)c(O)c(O)c1 [Compound 2f]              98
3  CCCCCCCCCCCCCCOC(=O)c1cc(O)c(O)c(O)c1 [Compound 2b]              64

Kindly review the next compound as well.
Tell me measured inhibition at 20 µM for CC(C)=CCCC(C)CCOC(=O)c1cc(O)c(O)c(O)c1 (stereo not shown) [Compound 2g] please. 99
